Below is a list of entries, each paired with its recorded INHIBITION value.
system: Plasmodium berghei; assay: Screen against P. berghei liver stage (PbLuc), transformed with Luciferase, at 10uM; format: functional, HepG2; conditions: tested at 10 uM
The whole screen tested about 69,000 compounds, of which about 8,600 (12%) showed an effect of 50% or more. Shown is part of a subset that was picked to be rich in strong results.
parameter: INHIBITION (%)

>>> print(df.to_string())
                                    compound   parameter  measured
 0  CCOc1nnc(CN2CCN(CCOC)C(CC)C2)s1 (configuration not stated)  INHIBITION      28.6
 1                    O=C(O)c1ncccc1N1CCCCC1  INHIBITION      6.83
 2             Cc1nccn1CCCNc1ccc(Cl)c(C#N)n1  INHIBITION     -9.39
 3                    COC(=O)c1ncccc1N1CCCC1  INHIBITION     -0.71
 4  COc1cccc(CNC(=O)c2cc(C)nc(N3CCCCC3)n2)c1  INHIBITION      4.97
 5                   COC(=O)c1ncccc1N1CCCCC1  INHIBITION      89.1
 6   CCOc1nnc(CN2CCC(c3cc4ccccc4[nH]3)CC2)s1  INHIBITION     -14.2
 7     O=C(Nc1c(N2CCCC2)cccc1N1CCCC1)c1cnsn1  INHIBITION      42.4
 8    O=C(Nc1c(N2CCCC2)cccc1N1CCCC1)c1ccccn1  INHIBITION      55.4
 9  CN1CCN(c2ccc(NC(=O)c3ccccn3)c(C(F)(F)F)c2)CC1  INHIBITION     -78.3
10   CCOc1nnc(CN2CCC(c3nc4ccccc4[nH]3)CC2)s1  INHIBITION     -35.9
11    O=C(Nc1c(N2CCCC2)cccc1N1CCCC1)c1cnccn1  INHIBITION        48

###

system: Plasmodium berghei; test: Screen against P. berghei liver stage (PbLuc), transformed with Luciferase, at 10uM; type: functional, HepG2; conditions: tested at 10 uM
Screen size: about 69,000 compounds; about 8,600 (12%) showed an effect of 50% or more. The entries come from a sample that favours strong results as a whole.
Doc: threshold 10% (exclusive). Items with INHIBITION beneath it return Met; others return Not met.

                                   compound    class
0  CC1CCCN(S(=O)(=O)NCc2ccccc2Cn2cncn2)C1 (stereo unspecified)  Not met
1  Cc1cc(C)nc(Nc2cncc(C3CCCN(S(C)(=O)=O)C3)n2)n1 (stereo unspecified)  Not met
2  CCCc1nc(CN2CCOC(Cn3cncn3)C2)cs1 (stereo unspecified)      Met
3  CC(=O)c1cccc(NC(=O)c2cnc(N3CCN(C)CC3)nc2C)c1      Met
4  Cc1ccccc1OC1(C(=O)O)CCN(C(=O)CCc2ccco2)CC1  Not met

###

system: Plasmodium berghei; assay: Screen against P. berghei liver stage (PbLuc), transformed with Luciferase, at 10uM; format: functional, HepG2; details: tested at 10 uM
Out of some 69,000 compounds screened, about 8,600 (12%) showed an effect of 50% or more. This is one part of a sample in which strong results are shown more often than they occur.
Measured INHIBITION of individual entries
parameter: INHIBITION

>>> df
                                    molecule  measured
 0  CC1COCCN1c1ncnc2sccc12 (configuration not stated)     49.1%
 1  CCNC(=O)[C@@H]1C[C@H](NC(=O)Cn2ccnc2)CN1Cc1ccsc1     39.3%
 2  COCC(=O)N1CCC(c2ccc(OC)cc2)C1 (configuration not stated)     23.6%
 3  O=C(NCCc1c[nH]cn1)c1ccc(S(=O)(=O)NC2CCOC2)cc1 (configuration not stated)     4.68%
 4  c1ccc2c(N3CCCCC3Cn3cncn3)ncnc2c1 (configuration not stated)    -11.1%
 5  O=C(CCNS(=O)(=O)c1ccccc1)N1CCOC(c2ccccc2)C1 (configuration not stated)    -74.1%
 6  Cc1nn(C)c(C)c1C1COCCN1c1ncnc2sccc12 (configuration not stated)    -7.11%
 7  Cc1n[nH]c(C)c1C1COCCN1c1ncnc2sccc12 (configuration not stated)     71.4%
 8    Cc1csc2c(N3CCC(NCCCc4ccncc4)CC3)ncnc12     43.5%
 9          CCC1CCN(CCn2cnc3c(C)csc3c2=O)CC1    -7.25%
10   Cc1ccc(C(=O)N2CCC3(CC2)C(=O)NCCN3C)cc1O     4.64%
11  COc1ccc2cc(C3CN(C(=O)CCNC(C)=O)CCO3)ccc2c1 (configuration not stated)     81.9%

FYI, the data here is from ChEMBL document CHEMBL4513216.
